Here, each record is paired with measured PBM binding z-score data.
System: LXRb:RXRa (NR concentration 270 nM, RXRa partner concentration 90 nM)
test-method-notes: PBM binding z-score (relative to random genomic background probes); higher = stronger binding; sequences stand for … in GC…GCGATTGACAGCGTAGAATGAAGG
# print the numeric value only

Worked examples follow.
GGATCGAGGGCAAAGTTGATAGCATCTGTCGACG; 0.937
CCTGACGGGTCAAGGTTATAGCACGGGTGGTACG; 2.21
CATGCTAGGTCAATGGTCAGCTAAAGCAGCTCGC; 1.38
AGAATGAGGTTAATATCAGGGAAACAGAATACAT; 2.17
CGTCCAAGGTCAGCGAGGTCAGTGAATGCCGAGT; 4.28
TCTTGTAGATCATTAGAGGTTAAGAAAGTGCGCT; 2.27
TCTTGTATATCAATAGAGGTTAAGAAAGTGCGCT; 1.74
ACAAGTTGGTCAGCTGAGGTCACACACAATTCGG; 3.77
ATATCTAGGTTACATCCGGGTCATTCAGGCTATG; 3.04
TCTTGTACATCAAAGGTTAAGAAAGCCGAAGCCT; 2

# returns recorded PBM binding z-score (system: LXRb:RXRa (NR concentration 270 nM, RXRa partner concentration 90 nM)) for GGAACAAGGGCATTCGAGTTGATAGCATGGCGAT 0.349

Would you mind doing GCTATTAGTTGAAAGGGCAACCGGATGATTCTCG as well? 0.759
